Experiment: chemical genetic growth profiling, strain panel (AID 1159580);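 also: tested at 20 µM; growth read once vehicle control cultures reached saturation at 30 °C; lower values mean less growth of the strain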
Conditions: S. cerevisiae deletion strains, growth OD, locus YPR167C, strain met16
The whole screen tested about 5,500 compounds, of which about 2,000 (36%) were called active. About 18% were inconclusive and are not listed. Rule as the data show it: active = normalized growth mostly below about 0.91 (no sharp cut-off); inconclusive = no clear call, values can overlap the other calls; inactive = mostly above about 0.92. The list shows a part of the results.
Mark one answer only. Choices: active, inactive

Examples from the recorded data:
compound="C=CCCCCCCCCCCCC(O)CC(O)COC(C)=O (stereo not drawn) (tested in a mixture with another compound)" answer_label=active
compound="CCCC(=O)O[C@]1(C(=O)CO)CCC2[C@@H]3CCC4=CC(=O)CC[C@]4(C)C3[C@@H](O)C[C@@]21C (stereo partly drawn)" answer_label=inactive
compound=Cc1ccc(C)c(OCCCC(C)(C)C(=O)O)c1 answer_label=active
compound=Nc1ccc(N=Nc2ccccc2)c(N)n1 answer_label=inactive

Next compound, please.
Record request — test call for Nc1ccn(C2O[C@H](CO)[C@@H](O)[C@@H]2O)c(=O)n1 (stereo partly drawn) inactive
